# assay.name: Xi-linked GFP reactivating small molecules – imaging, 68-5-11 mouse fibroblasts, cherry-pick, dose response (AID 743394);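 also: sensitizer 5-aza-dC present in the wells at 0.5 mM final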
# stated.conditions: 68-5-11 mouse fibroblast XiGFP reporter, % GFP-positive imaging, 3 d; at 19.5 µM (top of the series)
value.kind: activation (%)
Numbers only, in %.

Cc1cc(/C=C2/C(=O)NC(=O)N(Cc3ccco3)C2=O)c(C)n1-c1ccccc1O; -0.049
O=c1[nH]c(=O)n(CCC2=CCCCC2)c(O)c1/C=N/Nc1ccccc1; -0.002
COC(=O)Cn1cc(/C=C2\C(=O)NC(=O)N(c3ccc(OC)cc3)C2=O)c2ccccc21; 0.09
OCC[n+]1c2ccccc2nc2ccc(N3CCOCC3)cc21; 0.02
O=C(Cc1ccccn1)N1CCCCN2[C@H](C1)[C@@H](c1ccc(-c3ccccc3F)cc1)[C@@H]2CO; 1.33

For each listed entry, give its activation.
1. C[n+]1c(-c2ccccc2)c2cc(N)ccc2c2ccc(N)cc21
2. Cc1cc(=O)oc2cc3c(cc12)CCCN3
3. Cc1ccc2[nH]c(=S)n(-c3cccnc3)c(=O)c2c1
4. O=C(c1cccc2ccccc12)C1CCCN(Cc2ccon2)C1 (stereo not drawn)

1.19
0.76
-0.035
0.107
